TARGET UNDER TEST: DN quality control product recombinant protein (a recombinant antigen produced by the company itself) (dengue virus)
ASSAY METHOD TEXT: AMO sensor, antibody on sensor, antigen in solution
MEASUREMENT LABEL: kon (M⁻¹ s⁻¹)
Report only the number, with the unit M⁻¹ s⁻¹ understood.

Entry recombinant anti-dengue virus NS1 11E2 antibody (WT) (antibody, mouse IgG2a, kappa, V domains shown) VH: QVQLQQSGAELVRPGTSVKISCKASGYSFTDYWIGWVKQRPGHGLEWIGDMVPGDLYINYQEKFKGKATLTADTSSNTAYMQLSSLTSEDSAVYFCTNFITVGGLDYWGRGTSLTVSS VL: DVVMTQTPLTLSVTIGQPASISCKSSNSLLDSDGKTYLNWLLQRPGQSPKRLIYLVTKIDSGVPDRFTGSGSVTDFTLKISRVESEDLGVYYCWWGTHFPHTFGAGTKLEVKR : reported kon = ?
6770

Again, but for Mutation 1-40 (antibody, V domains shown) VH: QVQLQQSGAELVRPGTSVKISCKASGYTFTDYWIGWVKQRPGHGLEWIGDMFPGDVYINYQEKFKGKATLTADTSSNTAYMQLSSLTSEDSAVYFCTNFITLGGIDYWGRGTSLTVSS VL: DVVMTQTPLTLSVTIGQPASISCKSSNSLLDSDGRTYLNWLLQRPGQSPKRLIYLVSKIDSGVPDRFTGSGSVTDFTLKISRVESEDLGVYYCWYGTHFPHTFGAGTKLEVKR
42300
